Data provenance: patent US4064010A

Biological target: Micrococcus luteus NRRL B-8166 uricase
Experiment: Assay of uricase (spectrophotometric, disappearance of uric acid at 290 nm)
Format: biochemical
Conditions: read-out: inhibition constant for oxonate
Method: Uricase was assayed spectrophotometrically by following the disappearance of uric acid at 290 nm using a modification of the procedure described by Mahler et. al, J. Biol. Chem., 216, p. 625, (1955). Assay tubes contained 2.7 ml 50 mM KPi buffer pH 8.6, 0.1 mM sodium EDTA, 0.05 ml 6 mM urate, plus enzyme and water to give a final volume of 3.0 ml. Changes or additions to the assay mixtures were made when necessary. […]
Parameter Measured: Ki

### Prompt // Ki lookup, key: O=C(O)c1nc(=O)[nH]c(=O)[nH]1 [oxonate]
### Response 4.5 µM
